# Test system: Haemophilus influenzae
# TEST_PROTOCOL: Compound was evaluated for inhibitory activity against C.L Haemophilus influenzae ampicillin sensitive
# Type: functional
ASSAY_METRIC: MIC (µM)

{"columns": ["COMPOUND", "ASSAY_METRIC", "MEASURED_NUMBER"],
 "data": [
  ["CCS(=O)(=O)Nc1cccc([C@@H](N)C(=O)N[C@@H]2C(=O)N3C(C(=O)O)=C(C(F)(F)F)CC[C@H]23)c1", "MIC", 1],
  ["N[C@@H](C(=O)N[C@@H]1C(=O)N2C(C(=O)O)=C(Cl)CS[C@H]12)c1ccccc1 [CEFACLOR ANHYDROUS]", "MIC", 2],
  ["N[C@@H](C(=O)N[C@@H]1C(=O)N2C(C(=O)O)=C(C(F)(F)F)CC[C@H]12)c1ccc(O)c(Cl)c1", "MIC", 0.5],
  ["N[C@@H](C(=O)N[C@@H]1C(=O)N2C(C(=O)O)=C(C(F)(F)F)CC[C@H]12)c1cccc(Br)c1", "MIC", 0.5]
]}
